Cited source: patent US20050196403A1

target: HLA-A*6802 (human); experiment: competition with 125I probe peptide, purified HLA class I; details: remark: other sources report otherwise
RESULT_TYPE: IC50 (µM)
# value in µM; strip the unit string

Name the recorded IC50 for FLHSGTAKSV [1329.09 … p53.113] . 80
